- Test system: U2OS
- testMethodNotes: Multiplex assay against U2OS
- Assay type: toxicity, cell-based
- assayContext: human, 12 h, 1 µM, compound concentration 1 uM, replicate 2
quantityKind: Population Pyknosed Nuclei (%)

Cc1ccc2c(c1)c1c(n2CCc2ccc(C)nc2)CCN(C)C1 [LATREPIRDINE] : 4
C=CC(=O)Nc1ccc2[nH]c(=O)n(C3CCN(Cc4ccc(-c5nc6cc[nH]c(=O)c6cc5-c5ccccc5)cc4)CC3)c2c1 : 6
COC(=O)C1=C(C)NC(C)=C(C(=O)OCCCN2CCC(c3ccccc3)(c3ccccc3)CC2)[C@H]1c1cccc([N+](=O)[O-])c1 : 15
CC(C)Oc1ccccc1C(=O)Nc1ccccc1C(=O)Nc1cccc(S(=O)(=O)C(F)(F)F)c1 : 6
CNC(=O)c1ccc(Nc2ncc(C(F)(F)F)c(NCc3nccnc3N(C)S(C)(=O)=O)n2)cc1 : 13
CNC(=O)Nc1ccc(-c2nc(N3CC4CCC(C3)O4)c3cnn(C4CCC5(CC4)OCCO5)c3n2)cc1 : 16
CN1CCN(Cc2ccc(Nc3ncc(Cl)c(Nc4ccccc4S(=O)(=O)N(C)C)n3)cc2)CC1 : 2
CN1CCN(Cc2cc(NC(=O)c3ccc4c(c3)CN(c3ccccc3)CC4)cc(C(F)(F)F)c2)CC1 : 19
Cc1c[nH]c2nccc(Oc3c(F)cc(Nc4cc(Cl)nc(N)n4)cc3F)c12 : 14
CCc1nn(CCCN2CCN(c3cccc(Cl)c3)CC2)c(=O)n1CCOc1ccccc1.Cl [NEFAZODONE HYDROCHLORIDE] : 1
CC(C)NC(=O)N1CC[C@H](NC2=Nc3cc(F)ccc3N(CC(F)F)c3ccc(Cl)cc32)C1 : 5
C[C@]12CC[C@@H]3c4ccc(O)cc4CC[C@H]3[C@@H]1CC[C@@H]2O : 5
CC(C)OC(=O)N1CCC(Oc2ncnc3c2cnn3-c2ccc(S(C)(=O)=O)cc2F)CC1 : 3
COc1cc(Nc2nccc(-c3cnn4nc(OC)ccc34)n2)cc(C(F)(F)F)c1 : 5
CNC(=O)Nc1ccc2c(c1)[C@@]1(CC2)OC(=O)N(CC(=O)N(Cc2ccc(F)cc2)[C@@H](C)C(F)(F)F)C1=O : 4
COc1ccccc1CN[C@H]1C2CCN(CC2)[C@H]1C(c1ccccc1)c1ccccc1 : 3

* * *

Reported Population Pyknosed Nuclei (%) by item:
- Test system: Fibroblast
- testMethodNotes: Multiplex assay against human fibroblast
- Type: toxicity, cell-based
- assayContext: 48 h, 10 µM, compound concentration 10 uM, replicate 2
quantityKind: Population Pyknosed Nuclei (%)

CCCSc1nc(N[C@@H]2C[C@H]2c2ccc(F)c(F)c2)c2nnn([C@@H]3C[C@H](OCCO)[C@@H](O)[C@H]3O)c2n1 [TICAGRELOR] : 6
CCc1nn(CCCN2CCN(c3cccc(Cl)c3)CC2)c(=O)n1CCOc1ccccc1.Cl [NEFAZODONE HYDROCHLORIDE] : 2
COC(=O)C1=C(C)NC(C)=C(C(=O)OCCCN2CCC(c3ccccc3)(c3ccccc3)CC2)[C@H]1c1cccc([N+](=O)[O-])c1 [NIGULDIPINE] : 13
COc1ccc(-c2ccc3ncc4c(c3c2)n(-c2ccc(N3CCNCC3)c(C(F)(F)F)c2)c(=O)n4C)cn1.O=C(O)/C=C\C(=O)O [BGT-226] : 7
CC(C)NC(=O)N1CC[C@H](NC2=Nc3cc(F)ccc3N(CC(F)F)c3ccc(Cl)cc32)C1 : 1
COc1cc2ncn(-c3cc(OCc4ccccc4C(F)(F)F)c(C(N)=O)s3)c2cc1OC [GW843682X] : 14
Cc1c[nH]c2nccc(Oc3c(F)cc(Nc4cc(Cl)nc(N)n4)cc3F)c12 [BAY-549] : 3

* * *

In this section we review reported Population Normal (%) values for a set of molecules.
- System: U2OS
- testMethodNotes: Multiplex assay against U2OS
- Assay type: toxicity, cell-based
- assayContext: human, 48 h, 1 µM, compound concentration 1 uM, replicate 1
quantityKind: Population Normal (%)

COc1ccc(-c2ccc3ncc4c(c3c2)n(-c2ccc(N3CCNCC3)c(C(F)(F)F)c2)c(=O)n4C)cn1.O=C(O)/C=C\C(=O)O : 77
CC1=C(C(=O)Nc2cc3cn[nH]c3cc2F)C(c2ccc(C(F)(F)F)cc2)CC(=O)N1 (stereo not given) : 97
COc1cc(Nc2nccc(-c3cnn4nc(OC)ccc34)n2)cc(C(F)(F)F)c1 : 95
COC(=O)C1=C(C)NC(C)=C(C(=O)OCCCN2CCC(c3ccccc3)(c3ccccc3)CC2)[C@H]1c1cccc([N+](=O)[O-])c1 : 87
Cc1cccc(CN2CCN(C(c3ccccc3)c3ccc(Cl)cc3)CC2)c1.Cl.Cl (stereo not given) : 96

* * *

Each record here notes measured Population Tubulin-Different-Phenotype (%).
- Test system: HEK-293T
- testMethodNotes: Multiplex assay against HEK293T;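 note: share of the cells with healthy nuclei that show this phenotype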
- Type: toxicity, cell-based
- assayContext: human, 24 h, 10 µM, compound concentration 10 uM, replicate 1
quantityKind: Population Tubulin-Different-Phenotype (%)

Cc1cccc(CN2CCN(C(c3ccccc3)c3ccc(Cl)cc3)CC2)c1.Cl.Cl (centres undefined) : 87
CC(C)CC(=O)Nc1[nH]nc2c1CN(C(=O)C1CCN(C)CC1)C2(C)C [PHA-793887] : 8
Cc1nc(N2CC[C@H](O)C2)ncc1-c1cc(C(F)(F)F)cc2[nH]ncc12 : 6
COc1ccc(-c2ccc3ncc4c(c3c2)n(-c2ccc(N3CCNCC3)c(C(F)(F)F)c2)c(=O)n4C)cn1.O=C(O)/C=C\C(=O)O [BGT-226] : 0

* * *

- Tested on: Fibroblast
- testMethodNotes: Multiplex assay against human fibroblast
- Format: toxicity, cell-based
- assayContext: 48 h, 1 µM, compound concentration 1 uM, replicate 1
quantityKind: Population Membrane Permeable-Phenotype (%)

O=C(c1cc2c(cc1F)OC(c1ccc(F)cc1)(c1ccc(Cl)cc1Cl)O2)N1CCOCC1 (stereo not drawn) : 15
Cc1cccc(CN2CCN(C(c3ccccc3)c3ccc(Cl)cc3)CC2)c1.Cl.Cl (stereo not drawn) : 20
CN1CCN(Cc2ccc(Nc3ncc(Cl)c(Nc4ccccc4S(=O)(=O)N(C)C)n3)cc2)CC1 : 22
CC1=C(C(=O)Nc2cc3cn[nH]c3cc2F)C(c2ccc(C(F)(F)F)cc2)CC(=O)N1 (stereo not drawn) : 19
CCc1ccc(OCc2ccccc2C(=O)Nc2ccc3nc(C)cc(N)c3c2)cc1.Cl : 40
COc1cc2ncn(-c3cc(OCc4ccccc4C(F)(F)F)c(C(N)=O)s3)c2cc1OC [GW843682X] : 21
O=c1cc(N2CCOCC2)oc2c(-c3cccc4c3sc3ccccc34)cccc12 : 21
COc1ccccc1CN[C@H]1C2CCN(CC2)[C@H]1C(c1ccccc1)c1ccccc1 : 20
COc1ccc(-c2ccc3ncc4c(c3c2)n(-c2ccc(N3CCNCC3)c(C(F)(F)F)c2)c(=O)n4C)cn1.O=C(O)/C=C\C(=O)O : 58
CCc1nn(CCCN2CCN(c3cccc(Cl)c3)CC2)c(=O)n1CCOc1ccccc1.Cl [NEFAZODONE HYDROCHLORIDE] : 19
Cc1ccc2c(c1)c1c(n2CCc2ccc(C)nc2)CCN(C)C1 [LATREPIRDINE] : 13
Cl.O=C(O)c1cc(-c2ccc(C3CCNCC3)cc2)c2ccc(-c3ccc(C(F)(F)F)cc3)cc2c1 : 48
CNC(=O)Nc1ccc(-c2nc(N3CC4CCC(C3)O4)c3cnn(C4CCC5(CC4)OCCO5)c3n2)cc1 : 13
CC(C)c1noc(N2CCC(COc3ccc(-c4ccc(S(C)(=O)=O)cc4)nc3)CC2)n1 : 33
CC(C)Oc1ccccc1C(=O)Nc1ccccc1C(=O)Nc1cccc(S(=O)(=O)C(F)(F)F)c1 : 14
CC(C)NC(=O)N1CC[C@H](NC2=Nc3cc(F)ccc3N(CC(F)F)c3ccc(Cl)cc32)C1 : 23
CC(C)(C)NC[C@H](O)COc1nsnc1N1CCOCC1 : 22
CCCSc1nc(N[C@@H]2C[C@H]2c2ccc(F)c(F)c2)c2nnn([C@@H]3C[C@H](OCCO)[C@@H](O)[C@H]3O)c2n1 : 16

* * *

- Test system: U2OS
- testMethodNotes: Multiplex assay against U2OS
- Format: toxicity, cell-based
- assayContext: human, 24 h, 10 µM, compound concentration 10 uM, replicate 1
quantityKind: Population Fragmented Nuclei (%)

CC(C)(C)NC[C@H](O)COc1nsnc1N1CCOCC1 [TIMOLOL] : 7
CCc1nn(CCCN2CCN(c3cccc(Cl)c3)CC2)c(=O)n1CCOc1ccccc1.Cl [NEFAZODONE HYDROCHLORIDE] : 17
CN1CCN(Cc2ccc(Nc3ncc(Cl)c(Nc4ccccc4S(=O)(=O)N(C)C)n3)cc2)CC1 [DUBERMATINIB] : 38
CC(C)NC(=O)N1CC[C@H](NC2=Nc3cc(F)ccc3N(CC(F)F)c3ccc(Cl)cc32)C1 : 14
CC(C)CC(=O)Nc1[nH]nc2c1CN(C(=O)C1CCN(C)CC1)C2(C)C [PHA-793887] : 9
Cc1nc(N2CC[C@H](O)C2)ncc1-c1cc(C(F)(F)F)cc2[nH]ncc12 : 3
COC(=O)C1=C(C)NC(C)=C(C(=O)OCCCN2CCC(c3ccccc3)(c3ccccc3)CC2)[C@H]1c1cccc([N+](=O)[O-])c1 [NIGULDIPINE] : 69
CC1=C(C(=O)Nc2cc3cn[nH]c3cc2F)C(c2ccc(C(F)(F)F)cc2)CC(=O)N1 (stereo not drawn) : 6
